# credit: patent US20110076293A1

system: Jurkat human T lymphocyte cell line; test: Apoptosis assay (Annexin V) of compounds incubated with human serum; details: Table 5; human serum (48 hrs); 30 nM
Parameter Measured: % apoptotic cells at given concentration (nM)

Please indicate recorded % apoptotic cells at given concentration (nM) of CCNC(=O)O[C@@H]1[C@@]2(C(C)C)O[C@H]2[C@@H]2O[C@]23[C@]12O[C@H]2C[C@H]1C2=C(CC[C@@]13C)C(=O)OC2 [PG666, Triptolide 14-Ethyl Carbamate] measured with Jurkat human T lymphocyte cell line.
10.2%

Please indicate recorded % apoptotic cells at given concentration (nM) of CC(C)[C@]12O[C@H]1[C@@H]1O[C@]13[C@]1(O[C@H]1C[C@H]1C4=C(CC[C@@]13C)C(=O)OC4)[C@@H]2O [PG490, Triptolide] measured with Jurkat human T lymphocyte cell line.
15.9%

Please indicate recorded % apoptotic cells at given concentration (nM) of `CC(C)[C@]12O[C@H]1[C@@H]1O[C@]13[C@]1(O[C@H]1C[C@H]1C4=C(CC[C@@]13C)C(=O)OC4)[C@@H]2OC(=O)NCCN(C)C` measured with Jurkat human T lymphocyte cell line.
9.5%

Please indicate recorded % apoptotic cells at given concentration (nM) of CC(C)[C@]12O[C@H]1[C@@H]1O[C@]13[C@]1(O[C@H]1C[C@H]1C4=C(CC[C@@]13C)C(=O)OC4)[C@@H]2OC(=O)CCC(=O)O [PG490-88, triptolide-14-succinate, reference compound] measured with Jurkat human T lymphocyte cell line.
7.8%

----------
tested on: Jurkat human T lymphocyte cell line; test: Apoptosis assay (Annexin V) of compounds incubated with human serum; details: Table 4; serum, 0 hr; 10000 nM
Entries and their % apoptotic cells at given concentration (nM)
Hi! Could you send only the number? It should be in %, unit omitted.

>>> observed("CC(C)[C@]12O[C@H]1[C@@H]1O[C@]13[C@]1(O[C@H]1C[C@H]1C4=C(CC[C@@]13C)C(=O)OC4)[C@@H]2OC(=O)CCC(N)C(=O)O (stereo partly drawn) [PG661, 14-isoglutamyl ester, reference compound]")
5.2

Please supply the value of reported % apoptotic cells at given concentration (nM) for the item CC(C)[C@]12O[C@H]1[C@@H]1O[C@]13[C@]1(O[C@H]1C[C@H]1C4=C(CC[C@@]13C)C(=O)OC4)[C@@H]2OC(=O)Nc1ccccc1 [PG671, Triptolide 14-Phenyl Carbamate]
10.2

Please supply the value of reported % apoptotic cells at given concentration (nM) for the item CC(C)[C@]12O[C@H]1[C@@H]1O[C@]13[C@]1(O[C@H]1C[C@H]1C4=C(CC[C@@]13C)C(=O)OC4)[C@@H]2OC(=O)CCC(=O)O [PG490-88, triptolide-14-succinate, reference compound]
82.9

----------
test system: Jurkat human T lymphocyte cell line; assay: Apoptosis assay (Annexin V) of compounds incubated with human serum; details: Table 5; human serum (48 hrs); 300 nM
Parameter Measured: % apoptotic cells at given concentration (nM) (%)
Hi! Could you send only the number? It should be in %, unit omitted.

# annotated cases, reported % apoptotic cells at given concentration (nM) shown
>>> observed("CC(C)[C@]12O[C@H]1[C@@H]1O[C@]13[C@]1(O[C@H]1C[C@H]1C4=C(CC[C@@]13C)C(=O)OC4)[C@@H]2O [PG490, Triptolide]")
90.7
>>> observed("CC(C)[C@]12O[C@H]1[C@@H]1O[C@]13[C@]1(O[C@H]1C[C@H]1C4=C(CC[C@@]13C)C(=O)OC4)[C@@H]2OC(=O)NCCN(C)C")
8.7

Please supply the value of reported % apoptotic cells at given concentration (nM) for the item CC(C)[C@]12O[C@H]1[C@@H]1O[C@]13[C@]1(O[C@H]1C[C@H]1C4=C(CC[C@@]13C)C(=O)OC4)[C@@H]2OC(=O)CCC(=O)O [PG490-88, triptolide-14-succinate, reference compound]
88.4

Please supply the value of reported % apoptotic cells at given concentration (nM) for the item CCNC(=O)O[C@@H]1[C@@]2(C(C)C)O[C@H]2[C@@H]2O[C@]23[C@]12O[C@H]2C[C@H]1C2=C(CC[C@@]13C)C(=O)OC2 [PG666, Triptolide 14-Ethyl Carbamate]
14.9

----------
Test system: IL-2 production in Jurkat human T lymphocyte cells
Experiment: IL-2 production assay for activity of compounds incubated with human serum
Conditions: Table 8; Jurkat cells; 1 nM
Procedure: Several compounds of formula I were analyzed for their capacity to inhibit IL-2 production in Jurkat human T lymphocyte cells, after incubation with pooled human serum for 48 hours at 37° C. (see Example 20). […] The IC50 values (column 1) are calculated directly from the data in each experiment. The % conversion values (column 2) are calculated as the percent of the IC50 value produced by triptolide, designated PG490, incubated in the same plasma (i.e. in the same experiment). […]
We use 90 pg/mL as the dividing line for IL-2 pg/mL at given concentration (nM): on or above the line is T, below is F.

Example entries begin here.
>>> label_value("CC(C)[C@]12O[C@H]1[C@@H]1O[C@]13[C@]1(O[C@H]1C[C@H]1C4=C(CC[C@@]13C)C(=O)OC4)[C@@H]2OC(=O)Nc1ccccc1 [PG671, Triptolide 14-Phenyl Carbamate]")
"T"
>>> label_value("CCNC(=O)O[C@@H]1[C@@]2(C(C)C)O[C@H]2[C@@H]2O[C@]23[C@]12O[C@H]2C[C@H]1C2=C(CC[C@@]13C)C(=O)OC2 [PG666, Triptolide 14-Ethyl Carbamate]")
"F"
>>> label_value("CC(C)[C@]12O[C@H]1[C@@H]1O[C@]13[C@]1(O[C@H]1C[C@H]1C4=C(CC[C@@]13C)C(=O)OC4)[C@@H]2O [PG490, Triptolide]")
"F"

Switching to the query record.
Given the entry CC(C)[C@]12O[C@H]1[C@@H]1O[C@]13[C@]1(O[C@H]1C[C@H]1C4=C(CC[C@@]13C)C(=O)OC4)[C@@H]2OC(=O)CCC(N)C(=O)O (stereo partly drawn) [PG661, 14-isoglutamyl ester, reference compound] , answer whether its IL-2 pg/mL at given concentration (nM) meets or surpasses 90 pg/mL.
T
